- measuredOn: Collagenase 3 (Homo sapiens, UniProt P45452)
- assayName: Inhibitory activity against human matrix metalloprotease-13 in quenched fluorescence assay at pH 7.4
pIC50: −log10 of the molar value.
quantityMeasured: pIC50

Answered examples (3):
O=C(Nc1ccc(S(=O)(=O)NC(CC#CCN2CCOCC2)C(=O)O)cc1)c1ccc(Br)cc1 (centres undefined)	6.46
O=C(O)C(CC#Cc1ccccc1)NS(=O)(=O)c1ccc(Oc2ccccc2)cc1 (centres undefined)	5.67
O=C(O)C(CC#Cc1ccccc1)NS(=O)(=O)c1ccc(-c2ccc(-c3ccccc3)cc2)cc1 (centres undefined)	7.23

I = COc1ccc(-c2ccc(S(=O)(=O)NC(CC#Cc3ccccc3)C(=O)O)cc2)cc1 (centres undefined)
II = O=C(O)C(CC#CCN1CCCC1)NS(=O)(=O)c1ccc(-c2ccccc2)cc1 (centres undefined)
III = COCCOCOCC#CCC(NS(=O)(=O)c1ccc(-c2ccc(OC)cc2)cc1)C(=O)O (centres undefined)
Query: Put these in order: smallest pIC50 first, largest last. Rank the items, then write their labels in that order.
Result: II, III, I
(II: 5.52, III: 7.06, I: 7.68)

Cited source: ChEMBL document CHEMBL1134384
